- Tested on: MCF7 breast
- protocol: NCI-60 one-dose screen, 48 h
- conditions: 10 µM unless noted
About 83,000 compounds went through this panel and 20% of them were active in at least one assay; those are over-represented in the sample as a whole. Activity calls are given as the source filed them. Rule for the calls: active = growth percent below 10; inactive = the rest.
Select the matching outcome among active, inactive

Solved cases (5 shown):
> print(dat)
                                   compound   systemname  grouplabel
1                     CCCCCCCCCC[N+](C)(C)C  MCF7 breast    inactive
2  O=C(Nc1cccc2[nH]c(C(F)(F)F)nc12)c1ccc(F)cc1  MCF7 breast    inactive
3            CCCCCSc1ccc2nc(NC(=O)OCC)sc2c1  MCF7 breast    inactive
4  O=C1C=C(OCC=C(C(F)(F)F)C(F)(F)F)c2ccccc2C1=O  MCF7 breast      active
5  COc1cc2ncnc(-n3ncc4cc(NC(=O)Nc5ccc(Cl)c(Cl)c5)ccc43)c2cc1OC  MCF7 breast      active

IN: Each compound tested received a call. Report the one for NC(CSC(c1ccccc1)(c1ccccc1)c1ccccc1)C(=O)NCC(=O)O (stereo unspecified) .
OUT: inactive

---

- System: KM12 colon
- protocol: NCI-60 one-dose screen, 48 h (100 = growth as untreated, 0 = no growth, -100 = all killed)
- conditions: 10 µM unless noted
Compounds without any hit were thinned out: in the full panel of roughly 83,000, 20% have a hit.
Below, each entry is listed alongside its reported growth.
All answers are understood in %, so give the number only.

cpdSmiles	systemName	growth, %
COC(=O)[C@@H]1[C@H](O)[C@H](C)[C@H](O)[C@H](C)/C=C\C=C(C)C(=O)Nc2c(C)c(OC(C)=O)c3c(c2O)C(=O)C(C)=C2OCOC(=C23)C(C)=C[C@@](C)(O)[C@H](O)[C@@H](C)[C@H]1OC(C)=O	KM12 colon	119
C#CCCCCCCC[C@@H]1OC(=O)[C@H]([C@@H](C)CC)NC(=O)[C@H]([C@@H](C)CC)NC(=O)CC(=O)[C@@H]1C	KM12 colon	100
CC[n+]1c(C)ccc2cc(C)ccc21	KM12 colon	80.7

Next, consider the following molecule.
Lab book: growth of CCCCCCCCCCCCCCCCCCOP(=O)(O)O noted as 110

---

- Test system: SN12C renal
- protocol: NCI-60 one-dose screen, 48 h
- conditions: 10 µM unless noted
This is part of a sample that, as a whole, favours compounds with a hit. Of some 83,000 tested, about 20% had one in any assay. Calls of active or inactive are those of the source. How the source made its calls: active means growth percent below 10; inactive means the rest.
Pick from active, inactive when you respond.

Worked examples follow.
> print(dat)
                                   compound  grouplabel
1  CCCCN(CCCC)CCCNc1c2c(nc3ccc(Cl)cc13)CCCC2    inactive
2  COc1ccc(C2C3(C#N)C(N)=NC(=C(C#N)C#N)C23C#N)cc1OC (stereo unspecified)    inactive
3                       O=C(O)c1occ(Cl)c1Cl    inactive
4  CC(=O)/C(=C/c1ccc(-c2ccccc2)cc1)C(=O)c1ccccc1    inactive
5                              CC(=O)O.[In]    inactive

Kindly consider the entry below.
IN: Status in this test for N=C(N)c1ccc(-c2ccc(-c3ccc(F)cc3)s2)cc1 ?
OUT: active

Reference for the values: PubChem BioAssay (NCI)
